assay_method_text: Ratio of drug concentration in heart to plasma of Sprague-Dawley rat at 5 mg/kg, po measured for 24 hrs by LC-MS/MS analysis
Assay type: ADME, organism-based
study_conditions: Sprague-Dawley, heart and plasma
measured_parameter: Kp at 24 h
Simply state the number, no unit and no words.

Recorded Kp at 24 h for CC(C)(C)[C@@H]1Cc2c(nc3c(C(F)(F)F)cc(C4CC4)cn23)-c2[nH]c(=O)c(C(=O)O)cc21 , please?
0.2

* * *

assay_method_text: Selectivity ratio of drug concentration in liver in CD-1 mouse at 10 mg/kg, po measured for 24 hrs to EC90 for antiviral activity against HBV infected in human HepG2.2.15 cells assessed as reduction in HBsAg level
Format: ADME, organism-based
study_conditions: in vivo
One threshold, 3, splits the recorded Ratio values: lower ones are True, equal or higher ones are False.

Before answering, review these 6 worked examples.
• COCCCOc1cc2c(nc1OC)-c1cc(=O)c(C(=O)O)cn1[C@H](C(C)C)C2 = False
• CC(C)(C)[C@@H]1Cc2c(nc3c(OC(F)F)cc(F)cn23)-c2[nH]c(=O)c(C(=O)O)cc21 = False
• COc1ccn2c3c(nc2c1OC(F)F)-c1[nH]c(=O)c(C(=O)O)cc1[C@H](C(C)(C)C)C3 = True
• CC(C)(C)[C@@H]1Cc2c(nc3c(C(F)(F)F)cc(C4CC4)cn23)-c2[nH]c(=O)c(C(=O)O)cc21 = False
• COc1ccn2c3c(nc2c1OC)-c1[nH]c(=O)c(C(=O)O)cc1[C@H](C(C)(C)C)C3 = True
• CC(C)(C)[C@@H]1Cc2c(nc3c(OC(F)F)cccn23)-c2[nH]c(=O)c(C(=O)O)cc21 = True

In the record for CC(C)(C)[C@@H]1Cc2c(nc3c(OC(F)F)cccn23)-c2[nH]c(=O)c(C(=O)O)c(O)c21 , is Ratio less than 3?
False

In the record for COc1cc(OC(F)F)c2nc3c(n2c1)C[C@@H](C(C)(C)C)c1cc(C(=O)O)c(=O)[nH]c1-3 , is Ratio less than 3?
False

Strictly below 3 in Ratio? COCCCOc1cc2c(nc1OC)-c1[nH]c(=O)c(C(=O)O)c(O)c1[C@H](C(C)(C)C)C2
False

* * *

Each entry below carries its recorded concentration at 24 h.
assay_method_text: Drug concentration in Sprague-Dawley rat kidney at 5 mg/kg, po measured for 24 hrs by LC-MS/MS analysis
Assay type: ADME, organism-based
study_conditions: read-out: Ct
Entry rule: numbers only, all in ng/g.

* CC(C)(C)[C@@H]1Cc2c(nc3c(C(F)(F)F)cc(C4CC4)cn23)-c2[nH]c(=O)c(C(=O)O)cc21 | 6

Field: next compound
Name the recorded concentration at 24 h for COc1cc(OC(F)F)c2nc3c(n2c1)C[C@@H](C(C)(C)C)c1cc(C(=O)O)c(=O)[nH]c1-3 .
5.5

* * *

We begin with a simple list: items and their reported solubility kinetic at 24 h, 200 µM.
assay_method_text: Kinetic solubility of compound in aqueous buffer at pH 7.4 at 200 uM incubated for 24 hrs by UPLC UV analysis
Format: physicochemical
study_conditions: read-out: Kinetic_solubility
Be sure to follow the number with its unit.

Illustrative cases are given below, each with its answer.
• COCCCOc1cc2c(nc1OC)-c1cc(=O)c(C(=O)O)cn1[C@H](C(C)C)C2 = 175 µM
• CC(C)(C)[C@@H]1Cc2c(nc3c(C(F)(F)F)cc(C4CC4)cn23)-c2[nH]c(=O)c(C(=O)O)cc21 = 154 µM

--- query ---
Consider the molecule shown here: COc1cc(OC(F)F)c2nc3c(n2c1)C[C@@H](C(C)(C)C)c1cc(C(=O)O)c(=O)[nH]c1-3 What is its recorded solubility kinetic at 24 h, 200 µM?
183 µM

* * *

assay_method_text: Total AUC (0 to 24 hrs) in Beagle dog at 45 mg/kg, po qd measured after 60 days
Type: ADME, organism-based, Canis lupus familiaris
study_conditions: in vivo, time 60 day
measured_parameter: AUC at 1440 h (ng·h/mL)
Form entry: value (ng·h/mL) — number only.

What AUC at 1440 h value was documented for this compound, COc1cc(OC(F)F)c2nc3c(n2c1)C[C@@H](C(C)(C)C)c1cc(C(=O)O)c(=O)[nH]c1-3 ?
65900

* * *

assay_method_text: Permeability across basal to apical side in human Caco-2 cells at 5 uM incubated for 120 mins by LC-MS/MS analysis
Type: ADME, cell-based
study_conditions: read-out: permeability
measured_parameter: Papp B→A at 2 h, 5 µM (×10⁻⁶ cm/s)
Give just the numeric value; ×10⁻⁶ cm/s need not be written.

* CC(C)(C)[C@@H]1Cc2c(nc3c(C(F)(F)F)cc(C4CC4)cn23)-c2[nH]c(=O)c(C(=O)O)cc21 | 65.6

Any idea what Papp B→A at 2 h, 5 µM was measured for COc1cc(OC(F)F)c2nc3c(n2c1)C[C@@H](C(C)(C)C)c1cc(C(=O)O)c(=O)[nH]c1-3 ?
54.5

Reported Papp B→A at 2 h, 5 µM for COCCCOc1cc2c(nc1OC)-c1cc(=O)c(C(=O)O)cn1[C@H](C(C)C)C2 : what is it?
43.8

* * *

assay_method_text: Chemical stability of compound in PBS assessed as compound remaining measured after 6 days by HPLC UV analysis
Format: physicochemical
study_conditions: buffer, 144 h; time 6 day
measured_parameter: Stability

• COCCCOc1cc2c(nc1OC)-c1[nH]c(=O)c(C(=O)O)c(O)c1[C@H](C(C)(C)C)C2 = Unstable
• CC(C)(C)[C@@H]1Cc2c(nc3c(OC(F)F)cccn23)-c2[nH]c(=O)c(C(=O)O)c(O)c21 = Unstable
• CC(C)(C)C1Cc2c(cc(OC(F)F)c3ncccc23)-c2[nH]c(=O)c(C(=O)O)c(O)c21 (centres undefined) = Unstable

* * *

assayed_system: CYP2C19 (Homo sapiens, UniProt P33261)
Sequence (P33261 whole entry): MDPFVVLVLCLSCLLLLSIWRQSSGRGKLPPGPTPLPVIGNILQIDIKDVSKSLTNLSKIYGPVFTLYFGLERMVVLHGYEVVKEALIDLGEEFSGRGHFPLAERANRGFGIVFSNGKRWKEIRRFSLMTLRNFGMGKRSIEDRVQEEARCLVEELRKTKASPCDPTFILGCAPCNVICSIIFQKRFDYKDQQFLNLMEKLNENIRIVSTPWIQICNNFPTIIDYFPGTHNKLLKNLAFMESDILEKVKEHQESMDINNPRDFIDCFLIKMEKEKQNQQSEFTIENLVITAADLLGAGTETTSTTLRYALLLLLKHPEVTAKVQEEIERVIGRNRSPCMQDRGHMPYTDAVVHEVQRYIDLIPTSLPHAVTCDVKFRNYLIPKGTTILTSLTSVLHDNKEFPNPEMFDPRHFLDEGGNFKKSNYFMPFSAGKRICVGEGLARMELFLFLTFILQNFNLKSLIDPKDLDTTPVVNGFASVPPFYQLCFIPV
assay_method_text: Inhibition of CYP2C19 in human liver microsomes using S-mephenytoin as substrate preincubated for 30 min followed by NADPH addition measured after 12 mins by LC-MS/MS analysis
Type: ADME, Microsome
study_conditions: human, liver microsomes, probe S-mephenytoin
measured_parameter: IC50 at 12 min

So what's the measured IC50 at 12 min for this one? COCCCOc1cc2c(nc1OC)-c1cc(=O)c(C(=O)O)cn1[C@H](C(C)C)C2
> 25 µM

* * *

assay_method_text: Drug concentration in Sprague-Dawley rat plasma at 5 mg/kg, po measured for 24 hrs by LC-MS/MS analysis
Type: ADME, organism-based
study_conditions: read-out: Ct
measured_parameter: concentration at 24 h (ng/g)
API: value field is a number in ng/g; no unit string.

• COc1cc(OC(F)F)c2nc3c(n2c1)C[C@@H](C(C)(C)C)c1cc(C(=O)O)c(=O)[nH]c1-3 = 0.7

// next item, concentration at 24 h requested
Give the measured concentration at 24 h of CC(C)(C)[C@@H]1Cc2c(nc3c(C(F)(F)F)cc(C4CC4)cn23)-c2[nH]c(=O)c(C(=O)O)cc21 .
6.7

* * *

assayed_system: Voltage-gated inwardly rectifying potassium channel KCNH2 (Homo sapiens, UniProt Q12809)
Sequence (Q12809 whole entry): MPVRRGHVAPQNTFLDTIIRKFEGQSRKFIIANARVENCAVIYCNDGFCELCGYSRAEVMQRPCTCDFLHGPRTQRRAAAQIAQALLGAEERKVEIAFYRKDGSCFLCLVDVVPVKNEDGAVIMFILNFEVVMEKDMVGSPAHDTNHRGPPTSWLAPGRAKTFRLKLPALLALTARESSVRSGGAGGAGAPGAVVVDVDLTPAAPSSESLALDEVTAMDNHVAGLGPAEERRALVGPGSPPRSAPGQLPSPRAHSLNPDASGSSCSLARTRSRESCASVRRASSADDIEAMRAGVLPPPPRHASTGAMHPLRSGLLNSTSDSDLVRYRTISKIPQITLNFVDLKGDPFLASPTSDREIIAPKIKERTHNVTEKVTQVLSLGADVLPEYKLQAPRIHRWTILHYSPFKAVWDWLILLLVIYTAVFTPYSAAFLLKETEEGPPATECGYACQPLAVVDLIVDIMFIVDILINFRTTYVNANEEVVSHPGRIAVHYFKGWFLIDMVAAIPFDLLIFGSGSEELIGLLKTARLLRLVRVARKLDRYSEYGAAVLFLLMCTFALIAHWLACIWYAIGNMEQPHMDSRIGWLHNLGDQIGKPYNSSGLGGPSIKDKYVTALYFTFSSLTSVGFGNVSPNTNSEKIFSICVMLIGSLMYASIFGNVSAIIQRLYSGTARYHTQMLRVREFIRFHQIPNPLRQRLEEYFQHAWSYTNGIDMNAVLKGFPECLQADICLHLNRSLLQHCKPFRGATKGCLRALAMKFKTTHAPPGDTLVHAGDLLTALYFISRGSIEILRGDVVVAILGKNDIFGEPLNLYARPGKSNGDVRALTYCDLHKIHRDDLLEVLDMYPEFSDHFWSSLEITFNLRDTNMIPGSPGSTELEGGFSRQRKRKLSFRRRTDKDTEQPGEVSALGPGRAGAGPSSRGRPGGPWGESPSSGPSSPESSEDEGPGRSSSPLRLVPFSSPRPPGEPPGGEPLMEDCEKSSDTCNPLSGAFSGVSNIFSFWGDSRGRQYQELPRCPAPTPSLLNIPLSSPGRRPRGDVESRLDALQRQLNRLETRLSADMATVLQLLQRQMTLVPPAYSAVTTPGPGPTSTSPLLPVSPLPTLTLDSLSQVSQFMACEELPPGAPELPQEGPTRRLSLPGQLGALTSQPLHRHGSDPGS
pIC50: −log10 of the molar value.
measured_parameter: pIC50

Give pIC50 (Voltage-gated inwardly rectifying potassium channel KCNH2 (Homo sapiens, UniProt Q12809)) of the following compound: COc1cc(OC(F)F)c2nc3c(n2c1)C[C@@H](C(C)(C)C)c1cc(C(=O)O)c(=O)[nH]c1-3
< 4.52

* * *

assay_method_text: Kinetic solubility of compound in aqueous buffer at pH 4 at 200 uM incubated for 24 hrs by UPLC UV analysis
Assay type: physicochemical
study_conditions: read-out: Kinetic_solubility
Listed here are compounds together with their documented solubility kinetic at 24 h, 200 µM.
The answer should read as a number with its unit following.

Here is how some compounds turned out for solubility kinetic at 24 h, 200 µM.
* COc1cc(OC(F)F)c2nc3c(n2c1)C[C@@H](C(C)(C)C)c1cc(C(=O)O)c(=O)[nH]c1-3 | 43 µM
* CC(C)(C)[C@@H]1Cc2c(nc3c(C(F)(F)F)cc(C4CC4)cn23)-c2[nH]c(=O)c(C(=O)O)cc21 | 39 µM

Below: the item to evaluate.
I am curious: what solubility kinetic at 24 h, 200 µM value has been reported for COCCCOc1cc2c(nc1OC)-c1cc(=O)c(C(=O)O)cn1[C@H](C(C)C)C2 ?
190 µM

* * *

assay_method_text: Ratio of drug concentration in kidney to plasma of CD-1 mouse at 10 mg/kg, po measured for 24 hrs by LC-MS/MS analysis
Assay type: ADME, organism-based
study_conditions: kidney and plasma
measured_parameter: Kp at 24 h
When you answer, write just the number.

• CC(C)(C)[C@@H]1Cc2c(nc3c(C(F)(F)F)cc(C4CC4)cn23)-c2[nH]c(=O)c(C(=O)O)cc21 = 0.3

Let us examine a further case.
Which measured Kp at 24 h value corresponds to COc1cc(OC(F)F)c2nc3c(n2c1)C[C@@H](C(C)(C)C)c1cc(C(=O)O)c(=O)[nH]c1-3 ?
1.3
